Here, compounds appear alongside Ki reported for Human σ1 receptor (Homo sapiens, UniProt Q99720) in the literature.

Consider the following illustrative entries.
COC1CCN(Cc2cnc3c(ccn3-c3ccnc(C(F)(F)F)c3)c2)CC1    < 100 nM
FC(F)(F)c1cc(-n2ccc3cc(CN4CC5(CCOCC5)C4)cnc32)ccn1    < 100 nM
Cc1cccc(-c2nn(C)c(Cl)c2C(=O)N2CCC3(CCN(CCC(C)(C)C)CC3)CC2)n1    500 to 1000 nM

Which Ki is listed for `CN(Cc1cccnc1)[C@H]1CC[C@H](NS(=O)(=O)c2ccc(N3CCOCC3)nc2)CC1` ?
> 1000 nM

---

Here, compounds appear alongside Ki reported for Human σ1 receptor (Homo sapiens) in the literature.

Which Ki is listed for `CCn1nc(-c2ccon2)c(C(=O)N2CC3(CCN(CCC(C)(C)C)CC3)C2)c1Cl` ?
0.5 to 1 µM

Try the compound `Cc1cc(-c2nn(C)c(Cl)c2CN2CCC3(C2)CN(CCC(C)(C)C)C3)no1`
< 0.1 µM

Try the compound `CN(Cc1ccccc1)C1CCN(S(=O)(=O)c2ccc(N3CCOC3=O)nc2)CC1`
0.1 to 0.5 µM

Try the compound `FC(F)(F)c1cnccc1-c1cnn2cc(CN3CCC4(CC3)COC4)cnc12`
< 0.1 µM

Try the compound `O=S(=O)(N[C@@H]1CCN(Cc2ccccc2)C1)c1ccc(N2CCOCC2)nc1`
< 0.1 µM

---

pKi: −log10 of the molar value.
Here, molecules appear alongside pKi reported for Human σ1 receptor (Homo sapiens, UniProt Q99720) in the literature.

Cc1cc(-c2nn(C)c(Cl)c2C(=O)N2CC3(CCN(CCC(C)(C)C)CC3)C2)no1    6.30 to 7.00
CCOCC1CCN(Cc2cnc3c(ccn3-c3ccnc(C(F)(F)F)c3)c2)CC1    > 7.00
Cc1cc(-c2nn(C)c(Cl)c2CN2CCCCC(NCC3CCOCC3)C2)no1 (centres unmarked)    < 6.00
CCc1ncc(-c2cc(C)no2)c(C2CCN(CC(=O)N3CCCOCC3)CC2)n1    < 6.00
CCn1nc(-c2cc(C)on2)c(C(=O)NC2CCC3(CC2)CN(CCC(C)(C)C)C3)c1Cl    > 7.00

Record lookup: for Human σ1 receptor (Homo sapiens, UniProt Q99720), what pKi belongs to `Cc1cc(-c2nn(C)c(Cl)c2CN2CCC[C@H](NCCc3ccccc3)C2)no1` ?
6.30 to 7.00

Try the molecule `O=C1OCCN1c1ccc(S(=O)(=O)N2CCC3(CCN(Cc4cc(F)ccc4F)CC3)CC2)cn1`
< 6.00

Try the molecule `CCn1nc(-c2ccon2)c(C(=O)NC2CCC3(CC2)CCN(CCC(C)(C)C)CC3)c1Cl`
> 7.00

---

Here, compounds appear alongside Ki reported for Human σ1 receptor (Homo sapiens) in the literature.

Consider the following illustrative entries.
FC(F)(F)c1cccc(-c2cnn3cc(CN4CCC5(CC4)COC5)cnc23)n1    < 0.1 µM
O=S(=O)(NC1CCN(Cc2ccc(Cl)cc2)CC1)c1ccc(N2CCOCC2)nc1    < 0.1 µM
CN(Cc1ccc(F)cc1)[C@H]1CC[C@H](NS(=O)(=O)c2ccc(N3CCOCC3)nc2)CC1    > 1 µM
CN(Cc1ccccc1)[C@H]1CCN(S(=O)(=O)c2ccc(N3CCOCC3)nc2)C1    < 0.1 µM
CN(CC1CCOCC1)C1CCN(S(=O)(=O)c2ccc(N3CCC(F)(F)CC3)nc2)CC1    0.1 to 0.5 µM
Cc1cc(-c2nn(C)c(Cl)c2C(=O)N2CCCC(CNCC(C)C)C2)no1 (centres unmarked)    > 1 µM
N#Cc1ccc(CN2CCCC3(CCN(S(=O)(=O)c4ccc(N5CCOC5=O)nc4)CC3)C2)cc1F    0.1 to 0.5 µM

# ---- query compound ----
Which Ki is listed for `N#Cc1cc(CN2CCC3(CCCN(S(=O)(=O)c4ccc(N5CCOC5=O)nc4)C3)CC2)ccc1F` ?
< 0.1 µM

---

Here, molecules appear alongside pKi reported for Human σ1 receptor (Homo sapiens, UniProt Q99720) in the literature.
pKi: −log10 of the molar value.

Consider the following illustrative entries.
Cc1cccc(-c2nn(C)c(Cl)c2C(=O)NC2CCN(CCC(C)(C)C)CC2)n1    6.30 to 7.00
FC(F)(F)c1ccc(-n2ccc3cc(CN4CCC5(CC4)COC5)cnc32)cn1    > 7.00
Cc1cc(-c2nn(C)c(Cl)c2CN2CCC(CNCc3ccccc3)C2)no1 (stereo not drawn)    6.00 to 6.30
COCC1CCN(Cc2cnc3c(-c4ccnc(C)c4)cnn3c2)CC1    > 7.00
Cc1conc1-c1nn(C)c(Cl)c1CN1CCCCC(NCCC(C)(C)C)C1 (stereo not drawn)    6.30 to 7.00

Record lookup: for Human σ1 receptor (Homo sapiens, UniProt Q99720), what pKi belongs to `CN(CCc1ccccc1)C1CCN(S(=O)(=O)c2ccc(N3CCOCC3)nc2)CC1` ?
< 6.00

Try the molecule `CCn1nc(-c2cc(C)on2)c(C(=O)NCC2CCN(CCC(C)(C)C)CC2)c1Cl`
6.30 to 7.00

Try the molecule Cc1cc(-c2nn(C)c(Cl)c2CN2CCCC(NCCC(C)(C)C)CC2)no1 (stereo not drawn)
6.30 to 7.00

Try the molecule `O=S(=O)(N[C@@H]1CCN(Cc2ccccc2)C1)c1cnc(N2CCOCC2)c(F)c1`
> 7.00

---

Here, compounds appear alongside Ki reported for Human σ1 receptor (Homo sapiens) in the literature.

Consider the following illustrative entries.
CC(C)(C)CCN1CCC2(CC1)CCN(S(=O)(=O)c1ccc(N3CCOCC3=O)nc1)CC2    100 to 500 nM
N#Cc1ccc(CN2CC[C@H](NS(=O)(=O)c3ccc(N4CCOCC4)nc3)C2)cc1    < 100 nM
Cc1cc(-c2nn(C)c(Cl)c2CN2CC[C@@]3(CCN(CCC(C)(C)C)C3)C2)no1    < 100 nM
CCc1ncc(-c2cc(C)no2)c([C@@H]2CCCN(CC(=O)N3CCOCC3)CC2)n1    100 to 500 nM
Cn1ccc(-c2nn(C)c(Cl)c2C(=O)N2CCC3(CCN(CCC(C)(C)C)CC3)CC2)n1    > 1000 nM

Which Ki is listed for `O=S(=O)(c1ccc(N2CCOCC2)nc1)N1CCCC2(CCN(Cc3ccncc3)CC2)C1` ?
100 to 500 nM

Try the compound `O=C1OCCN1c1ccc(S(=O)(=O)N2CCCC3(CCN(Cc4ccccc4)CC3)C2)cn1`
< 100 nM

Try the compound `c1ccc(C2CCN(Cc3cnc4c(-c5ccncc5)cnn4c3)CC2)cc1`
< 100 nM

Try the compound `CCn1nc(-c2cc(C)on2)c(C(=O)N[C@H]2CC[C@H](NCCC(C)(C)C)CC2)c1Cl`
500 to 1000 nM

Try the compound `CC(C)(C)CCN1CCC2(CC1)CCN(S(=O)(=O)c1ccc(N3CCC4(CC3)COC4)nc1)CC2`
500 to 1000 nM

Try the compound `Cc1cc(-c2nn(C)c(Cl)c2C(=O)N2CC3(CCCN(CCC(C)(C)C)C3)C2)no1`
500 to 1000 nM

Try the compound `CCn1nc(-c2cc(C)on2)c(CN2CC3(CCN(CCC(C)(C)C)CC3)CC2=O)c1Cl`
100 to 500 nM

Try the compound `O=S(=O)(c1ccc(N2CCOCC2)nc1)N1CCCC2(CCN(Cc3ccccc3)CC2)C1`
100 to 500 nM

Try the compound `Clc1cc(-c2cnn3cc(CN4CCC5(CC4)COC5)cnc23)ccn1`
< 100 nM

Try the compound `CC(C)(C)CCN1CCC2(CC1)CCN(S(=O)(=O)c1ccc(N3CCC4(CCOC4)CC3)nc1)CC2`
100 to 500 nM

Try the compound `COc1cccc(-c2nn(C)c(Cl)c2C(=O)N2CCC3(CCN(CCC(C)(C)C)CC3)CC2)n1`
100 to 500 nM

Try the compound `Cn1nc(-c2cccc(C(F)(F)F)n2)c(CC(=O)NC2CCN(CCC(C)(C)C)CC2)c1Cl`
< 100 nM

Try the compound `Cn1cc(-c2nn(C)c(Cl)c2C(=O)NC2CC3(CCN(CCC(C)(C)C)CC3)C2)cn1`
500 to 1000 nM

Try the compound `N#Cc1cc(CN2CCC3(CC2)CCN(S(=O)(=O)c2ccc(N4CCOC4=O)nc2)CC3)ccc1F`
> 1000 nM

Try the compound `CN(Cc1cc(F)ccc1F)C1CCN(S(=O)(=O)c2ccc(N3CCC(F)(F)CC3)nc2)CC1`
100 to 500 nM

Try the compound `CN([C@@H]1CCN(Cc2ccccc2)C1)S(=O)(=O)c1ccc(N2CCOCC2)nc1`
< 100 nM
